Sourced from ChEMBL document CHEMBL1136872

molecular target: Alpha-2A adrenergic receptor (Homo sapiens, UniProt P08913); assay: Agonist activity at human cloned adrenergic alpha2A receptor expressed in CHOK1 cells by beta-lactamase reporter gene assay; type: functional, cell-based, CHO-K1; details: cho-k1
Sequence (P08913 whole entry): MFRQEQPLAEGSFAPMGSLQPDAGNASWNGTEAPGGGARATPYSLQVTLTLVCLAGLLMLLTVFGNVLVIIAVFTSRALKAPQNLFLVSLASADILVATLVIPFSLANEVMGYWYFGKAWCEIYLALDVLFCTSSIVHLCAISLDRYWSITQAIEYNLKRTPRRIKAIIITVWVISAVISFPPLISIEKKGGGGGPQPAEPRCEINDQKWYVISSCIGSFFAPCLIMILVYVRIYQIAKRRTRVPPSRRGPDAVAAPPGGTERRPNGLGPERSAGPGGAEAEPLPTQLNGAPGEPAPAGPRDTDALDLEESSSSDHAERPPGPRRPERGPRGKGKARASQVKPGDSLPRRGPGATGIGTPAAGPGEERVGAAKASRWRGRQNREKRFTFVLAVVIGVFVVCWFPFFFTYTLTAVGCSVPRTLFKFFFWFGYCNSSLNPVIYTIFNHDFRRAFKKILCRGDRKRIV
MEASURED PARAMETER: EC50

Q: Would you kindly share the measured EC50 for c1ccc(C2Cc3nccn3C2)cc1 (single isomer, unassigned; form 1) ?
A: > 10 µM

Q: Would you kindly share the measured EC50 for c1ccc(C2Cc3nccn3C2)cc1 (single isomer, unassigned; enantiomer 1) ?
A: > 10 µM

Q: Would you kindly share the measured EC50 for c1ccc(C2CCc3nc[nH]c3C2)cc1 (single isomer, unassigned; enantiomer 2) ?
A: > 10 µM

Q: Would you kindly share the measured EC50 for c1ccc(C2CCc3nc[nH]c3C2)cc1 (single isomer, unassigned; enantiomer 1) ?
A: > 10 µM
